Values compiled from paper PMC10397247.

Target: T1, O14-bN
T1 chain: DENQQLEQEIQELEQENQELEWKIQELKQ
Experiment: two-hybrid library CCNG1;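 further: natural log of median RNA to DNA barcode read ratio; higher means stronger binding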
MEASUREMENT_LABEL: interaction score

DKIQQLKQEIQELEQENQELEWENQELEQ [O11-bN]
-0.639
DKNQQLKQENQELEQKIQELKWKIQELKQ [O10-bN]
-1.59

[I] DEIQQLEQKIQELKQKNQELKWKNQELKQ [O12-bN]
[II] DKNQQLKQENQELEQEIQELEWEIQELEQ [O1-bN]
Inquiry: Compare the recorded interaction score of I and II ; state which is larger. # reply format: chosen label
Reply text: I
